- testSystem: human DGKζ (Homo sapiens, UniProt Q13574)
- Construct: TVMV protease cleavage site (C); Hexa-His (C); made in house; host or cells: Sf9 insect cells (baculovirus, Bac-to-Bac)
- Sequence (Q13574 with tags, fused parts or gaps isoform Q13574-4): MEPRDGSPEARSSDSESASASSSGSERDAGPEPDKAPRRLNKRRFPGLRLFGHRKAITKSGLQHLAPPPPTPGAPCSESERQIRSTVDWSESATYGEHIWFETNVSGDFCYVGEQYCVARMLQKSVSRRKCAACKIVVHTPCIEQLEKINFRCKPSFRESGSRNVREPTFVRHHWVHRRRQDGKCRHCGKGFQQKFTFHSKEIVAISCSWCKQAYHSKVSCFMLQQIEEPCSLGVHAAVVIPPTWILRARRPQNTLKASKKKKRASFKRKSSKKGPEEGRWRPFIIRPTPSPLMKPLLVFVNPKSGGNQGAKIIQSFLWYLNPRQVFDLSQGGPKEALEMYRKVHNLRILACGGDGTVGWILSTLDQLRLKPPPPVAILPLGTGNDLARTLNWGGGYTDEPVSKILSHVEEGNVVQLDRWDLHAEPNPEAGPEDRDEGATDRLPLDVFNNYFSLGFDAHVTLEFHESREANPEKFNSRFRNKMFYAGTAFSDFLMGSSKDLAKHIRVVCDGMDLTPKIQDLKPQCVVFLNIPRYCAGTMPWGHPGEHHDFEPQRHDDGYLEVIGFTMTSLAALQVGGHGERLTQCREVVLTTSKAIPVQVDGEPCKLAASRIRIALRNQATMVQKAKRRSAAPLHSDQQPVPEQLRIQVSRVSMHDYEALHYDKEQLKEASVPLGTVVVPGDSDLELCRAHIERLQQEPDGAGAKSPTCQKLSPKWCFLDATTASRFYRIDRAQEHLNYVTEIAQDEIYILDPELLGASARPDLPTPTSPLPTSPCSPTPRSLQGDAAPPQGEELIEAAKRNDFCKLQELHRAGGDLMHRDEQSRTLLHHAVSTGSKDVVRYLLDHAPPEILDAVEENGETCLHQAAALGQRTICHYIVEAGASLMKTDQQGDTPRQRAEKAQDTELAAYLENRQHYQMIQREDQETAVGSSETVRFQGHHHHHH
- protocolNotes: DGKζ LIPGLO assay (extruded liposome substrate), in vitro DGK inhibition
- Assay type: biochemical
- reportedConditions: DGKζ liposome (LIPGLO) assay; read-out: DGKz LIPGLO IC50
# IC50 values compiled below
Write down the numeric answer in µM and omit the unit.

Query: Tell me its IC50 given C[C@@H]1CN(c2cc(=O)n(C)c3ccc(C#N)nc23)[C@@H](C)CN1C(c1ccc(F)cc1)c1nnc(C2CC2)[nH]1 (single isomer, unassigned) [Example 766] as the entry.
Response: 9.4

Query: In one line, give reported IC50 of the entry C[C@@H]1CN(c2c(C#N)c(=O)n(C)c3ccc(C#N)nc23)[C@@H](C)CN1C(c1ccc(F)cc1)c1ccccn1 (single isomer, unassigned) [Example 843] .
Response: 0.88

Query: Consider the compound C[C@@H]1CN(c2cc(=O)n(C)c3ccc(C#N)nc23)[C@@H](C)CN1C(c1ccc(F)cc1)c1cc(C2CC2)on1 (single isomer, unassigned) [Example 729] and give its recorded IC50.
Response: 1.8

Next:
Query: // Input: C[C@@H]1CN(c2c(C#N)c(=O)n(C)c3ccc(C#N)nc23)CCN1C(c1ccc(F)cc1)c1ccccc1F (stereo partly drawn) [Example 883] . Output its IC50 only.
Response: 0.84

Query: Please list IC50 recorded for the compound "Cc1ccc(C(c2ccc(C)cc2)N2C[C@H](C)N(c3c(C#N)c(=O)n(C)c4ccc(C#N)nc34)C[C@H]2C)cc1"
Response: 0.39

Query: Output measured IC50 for this item: C[C@@H]1CN(c2cc(=O)n(C)c3ccc(C#N)nc23)[C@@H](C)CN1C(c1ccc(F)cc1)c1nnc(C2CC2)[nH]1 (single isomer, unassigned) [Example 767]
Response: 6.6
